Could you please report measured EC50 for the items listed next?
Biological target: Nociceptin receptor (Mus musculus, UniProt P35377)
Sequence (P35377 whole entry): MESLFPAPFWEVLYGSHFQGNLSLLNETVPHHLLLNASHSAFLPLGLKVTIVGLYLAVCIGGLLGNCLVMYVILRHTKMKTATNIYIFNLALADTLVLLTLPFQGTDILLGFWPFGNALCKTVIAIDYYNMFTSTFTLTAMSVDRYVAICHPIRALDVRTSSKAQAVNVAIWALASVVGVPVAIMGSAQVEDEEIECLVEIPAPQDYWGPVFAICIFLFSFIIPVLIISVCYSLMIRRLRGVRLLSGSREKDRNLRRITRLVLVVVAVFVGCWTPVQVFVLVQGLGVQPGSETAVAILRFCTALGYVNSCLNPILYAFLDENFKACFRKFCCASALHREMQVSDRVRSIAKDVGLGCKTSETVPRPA
Test: Agonist activity at NOR in mouse Neuro-2a cells assessed as stimulation of ERK phosphorylation after 35 mins post dose by Alphascreen Surefire assay
Bridge positions count the residues as written; N and C are the ends. Peptide text beside a SMILES is read from it.
Give bare numbers, in nM.

{"columns": ["Compound", "Measured on", "Value"],
 "data": [
  ["C[C@@H](O)[C@H](NC(=O)[C@H](Cc1ccccc1)NC(=O)CNC(=O)CNC(=O)[C@@H](N)Cc1ccccc1)C(=O)NCC(=O)N[C@H]1CCCCNC(=O)C[C@@H](C(=O)N[C@@H](CCCN=C(N)N)C(=O)N[C@@H](CCCCN)C(N)=O)NC(=O)[C@H](CO)NC(=O)[C@H](CCCCN)NC(=O)[C@H](CCCN=C(N)N)NC1=O (H-FGGFTGKRKSDRK-NH2; lactam 7-11)", "Nociceptin receptor (Mus musculus, UniProt P35377)", 30],
  ["C[C@@H](O)[C@H](NC(=O)[C@H](Cc1ccccc1)NC(=O)CNC(=O)CNC(=O)[C@@H](N)Cc1ccccc1)C(=O)NCC(=O)N[C@H]1CCCCNC(=O)C[C@@H](C(N)=O)NC(=O)[C@H](CCCCN)NC(=O)[C@H](CCCN=C(N)N)NC(=O)[C@@H]2CC(=O)NCCCC[C@@H](CC(=O)[C@H](CCCCN)NC(=O)[C@H](CCCN=C(N)N)NC1=O)C(=O)N2", "Nociceptin receptor (Mus musculus, UniProt P35377)", 14]
]}

Could you tell me which EC50 is on file for "C[C@@H](O)[C@H](NC(=O)[C@H](Cc1ccc(F)cc1)NC(=O)CNC(=O)CNC(=O)[C@@H](N)Cc1ccccc1)C(=O)NCC(=O)N[C@H]1CCCCNC(=O)C[C@@H](C(=O)N[C@@H](CCCN=C(N)N)C(=O)N[C@@H](CCCCN)C(=O)N[C@H]2CCCCNC(=O)C[C@@H](C(N)=O)NC(=O)[C@H](CCC(N)=O)NC(=O)[C@H](CC(N)=O)NC(=O)[C@H](CCCCN)NC2=O)NC(=O)[C@H](CO)NC(=O)[C@H](CCCCN)NC(=O)[C@H](CCCN=C(N)N)NC1=O" ?
0.04

----------
Test: Half life in human serum
Type: ADME, cell-free
Readout kind: half-life (min)
One number for each entry, in min.

Could you tell me which half-life is on file for CC(C)C[C@H](NC(=O)[C@H](CCCCN)NC(=O)[C@H](CCCN=C(N)N)NC(=O)[C@H](C)NC(=O)[C@H](CO)NC(=O)[C@H](CCCCN)NC(=O)[C@H](CCCN=C(N)N)NC(=O)[C@H](C)NC(=O)CNC(=O)[C@@H](NC(=O)[C@H](Cc1ccccc1)NC(=O)CNC(=O)CNC(=O)[C@@H](N)Cc1ccccc1)[C@@H](C)O)C(=O)N[C@@H](C)C(=O)N[C@@H](CC(N)=O)C(=O)N[C@@H](CCC(N)=O)C(=O)O [NOCICEPTIN] ?
60

----------
Target: Nociceptin receptor (Mus musculus, UniProt P35377)
Test: Agonist activity at NOR in mouse Neuro-2a cells assessed as stimulation of ERK phosphorylation after 35 mins post dose by Alphascreen Surefire assay
Readout kind: pEC50
Give bare numbers, as −log10 of the molar value.

Could you tell me which pEC50 is on file for "CC(C)C[C@H](NC(=O)[C@H](CCCCN)NC(=O)[C@H](CCCN=C(N)N)NC(=O)[C@H](C)NC(=O)[C@H](CO)NC(=O)[C@H](CCCCN)NC(=O)[C@H](CCCN=C(N)N)NC(=O)[C@H](C)NC(=O)CNC(=O)[C@@H](NC(=O)[C@H](Cc1ccc(F)cc1)NC(=O)CNC(=O)CNC(=O)[C@@H](N)Cc1ccccc1)[C@@H](C)O)C(=O)N[C@@H](CCCCN)C(=O)N[C@@H](CC(N)=O)C(=O)N[C@@H](CCC(N)=O)C(N)=O" ?
9.44

Reference for the values: ChEMBL document CHEMBL1629538
